Target: human P2X3 (Homo sapiens, UniProt P56373)
Sequence (P56373 1-397): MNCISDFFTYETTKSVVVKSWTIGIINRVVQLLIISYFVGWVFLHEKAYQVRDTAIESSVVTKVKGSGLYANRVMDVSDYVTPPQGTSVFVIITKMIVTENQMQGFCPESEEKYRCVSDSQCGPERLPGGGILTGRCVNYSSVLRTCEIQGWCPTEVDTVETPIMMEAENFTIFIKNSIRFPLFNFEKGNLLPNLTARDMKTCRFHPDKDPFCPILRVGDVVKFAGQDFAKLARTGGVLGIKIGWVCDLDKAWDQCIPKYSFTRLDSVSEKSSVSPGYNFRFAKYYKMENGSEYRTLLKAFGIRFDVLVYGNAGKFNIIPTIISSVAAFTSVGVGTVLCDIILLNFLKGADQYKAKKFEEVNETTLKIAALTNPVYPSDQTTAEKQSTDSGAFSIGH
Assay: Intracellular Calcium Measurement to Assess Antagonist Affinity (FLIPR, Fluo-4), human P2X3 cells
Settings: Intracellular Calcium Measurement to Assess Antagonist Affinity assay; agonist α,β-meATP at EC50
metric: IC50 (nM)

1. Cc1noc([C@@H](C)NC(=O)c2cc(-c3ccc(F)cc3)c(=O)n(C(C)C)c2)n1 [Example 5.61]: 48

a = Cc1ccc(-c2cc(C(=O)N[C@H](C)c3nc(C)no3)cnc2OC(C)C)cc1 [Example 3.22]
b = Cc1ccc(-c2cc(C(=O)N[C@@H](C)c3nnc[nH]3)nc(-c3ccc(C)cc3)n2)cc1 [Example 2.1]
Problem: Given the entries a and b , determine which has the lower reported IC50. Lab note: record the label of whichever item you select.
a
